B1: DLC1 (parent)
chain: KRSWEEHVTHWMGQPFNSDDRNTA

Variants of: B1
Test: protein stability index of a GFP-peptide fusion (GPS, HEK-293T) (PSI 1-6); higher = more stable;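 further: lentivirally expressed fusions sorted by FACS into six bins by GFP to DsRed ratio, PSI derived from sequencing read proportions per bin multiplied by bin number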
Conditions: c terminus: a fixed tail appended

Variant identifier	protein stability index
N17T	3.4
N22D	2.59
R21P	2.6
W4R	4.62
A24T	2.43
E5T	2.4
N17K	2.1
N22P	2.73
D19A	2.67
